# Test system: BT-549 breast
# experimental-protocol: NCI tumour cell line growth inhibition, 48 h
Use 7 µM as the dividing line for TGI, with the line itself on the t side and lower values as f.

{"compound": "CN(C)CCCN1c2nc3ccccc3cc2Sc2cc3ccccc3nc21", "assay-target": "BT-549 breast", "label-value": "f"}
{"compound": "OCC1OC(n2ccc3c(NO)ncnc32)C(O)C1O (stereo unspecified)", "assay-target": "BT-549 breast", "label-value": "f"}
{"compound": "C=C1C(=O)OC2CC1C(O)C/C(C)=C/CC/C(C)=C/C(O)CC2C (stereo unspecified)", "assay-target": "BT-549 breast", "label-value": "f"}
{"compound": "Cc1ccc(N=Nc2c(O)ccc3cc(S(=O)(=O)O)ccc23)c(C)c1", "assay-target": "BT-549 breast", "label-value": "t"}
{"compound": "COc1ccc(N2C(=Nc3ccccc3)SC(=N/S(=O)(=O)c3ccccc3)/C2=N\\S(=O)(=O)c2ccccc2)cc1", "assay-target": "BT-549 breast", "label-value": "t"}
{"compound": "FC(F)(F)c1ccccc1N1CCN(c2nc(-c3cccs3)nc3ccc(Br)cc23)CC1", "assay-target": "BT-549 breast", "label-value": "t"}
{"compound": "COCCOC(=O)NC(=O)Nc1ccc(/C(=N/O)c2ccc(Cl)cc2)cc1", "assay-target": "BT-549 breast", "label-value": "t"}
{"compound": "Cc1ccc(OCC2OC(n3cnc4c(N(C)C)nc(Br)nc43)CC2Oc2ccc(C)cc2)cc1 (stereo unspecified)", "assay-target": "BT-549 breast", "label-value": "t"}
{"compound": "CCOc1cc(NC(C)=O)ccc1C(=O)NN1C(=O)C(Oc2ccccc2)C1c1ccccc1 (stereo unspecified)", "assay-target": "BT-549 breast", "label-value": "t"}
{"compound": "Cc1cc(C)c(C[N+](C)(C)C)c(C)c1C", "assay-target": "BT-549 breast", "label-value": "t"}
{"compound": "O=C(CN1CCN(Cc2ccccc2)CC1)N1CCCn2c1nc1ccccc1c2=O", "assay-target": "BT-549 breast", "label-value": "t"}
{"compound": "C[C@]1(CO)[C@H]2CC[C@@]34C=C[C@@](CO)(CC[C@H]3[C@]2(C)CC[C@H]1O)C4", "assay-target": "BT-549 breast", "label-value": "t"}
{"compound": "NNc1nc2ccccc2c(=O)n1NC(=O)C(=O)Nc1cccc(C(F)(F)F)c1", "assay-target": "BT-549 breast", "label-value": "t"}
{"compound": "Cc1nc2sc(C(=O)Nc3cccc4ccccc34)c(N)c2cc1C(=O)c1ccccc1", "assay-target": "BT-549 breast", "label-value": "t"}
{"compound": "NC(=O)c1nnc2cc(F)ccc2c1N", "assay-target": "BT-549 breast", "label-value": "t"}
{"compound": "[Se]=P(c1ccccc1)(c1ccccc1)c1ccc(C(c2ccccc2)=P(c2ccccc2)(c2ccccc2)c2ccccc2)cc1", "assay-target": "BT-549 breast", "label-value": "f"}
{"compound": "NNc1cccc(/C=C/c2ccccc2)cc1=O", "assay-target": "BT-549 breast", "label-value": "t"}
{"compound": "CC(C)(C)NCc1cc(C(C)(C)C)cc(-c2ccc(Cl)cc2)c1O", "assay-target": "BT-549 breast", "label-value": "t"}
{"compound": "CCCCCCCCCCCCCCCCCCNc1ccn(C2OC(COP(=O)(O)OCC3CCC(n4cnc5c(=O)[nH]cnc54)O3)C(O)C2O)c(=O)n1 (stereo unspecified)", "assay-target": "BT-549 breast", "label-value": "t"}
{"compound": "O=C(Nc1nc2c(=O)[nH]cnc2s1)c1ccccc1", "assay-target": "BT-549 breast", "label-value": "t"}
{"compound": "Clc1nc(Cl)c(Cl)c(Cl)n1", "assay-target": "BT-549 breast", "label-value": "t"}
